Tested on: HCT-116 human colorectal carcinoma cells
ASSAY_PROTOCOL: Cell-proliferation assay using Alamar Blue dye;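 note: cells exposed to compound for about 4 days, then Alamar Blue added and dye fluorescence read after about 4 h, compared with medium-only control wells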
Type: cell-based
TEST_PARAMETERS: Homo sapiens, HCT-116, second HCT-116 column (c8); read-out: HCT-116 (uM) cell proliferation modulatory activity
TEST_READOUT: IC50

Examples with answers:
{"COMPOUND": "O=C(O)c1ccc2c(c1)nc(NCCc1ccccc1)c1cnccc12", "TEST_READOUT": "IC50", "OBSERVED_VALUE": "> 10 µM"}
{"COMPOUND": "Clc1cccc(Nc2nc3cc(-c4nnco4)ccc3c3cnccc23)c1", "TEST_READOUT": "IC50", "OBSERVED_VALUE": "5.17 µM"}
{"COMPOUND": "O=C(O)c1ccc2c(c1)nc(Nc1cc(F)cc(Cl)c1)c1ccncc12", "TEST_READOUT": "IC50", "OBSERVED_VALUE": "> 10 µM"}

Reported IC50, compound N#Cc1ccc(Nc2nc3cc(C(=O)O)ccc3c3cnccc23)cc1 : ____
> 10 µM

How about this compound: CN(C)CCNc1nc2cc(C(=O)NC3CCCCC3)ccc2c2sccc12
> 10 µM

Record: CN1CCN(c2nc3cc(-c4nnn[nH]4)ccc3c3sccc23)CC1
> 10 µM

Next compound: CN(C)CCNc1nc2cc(-c3nnc[nH]3)ccc2c2sccc12
> 10 µM

# iterate: CC(C)(C)OC(=O)N1CCCC1CNc1nc2cc(-c3nnn[nH]3)ccc2c2sccc12 (centres unmarked)
> 10 µM

What do you get for O=C(O)c1ccc2c(c1)nc(NCCc1ccccc1)c1cccnc12 ?
> 10 µM

What do we get for CCOCCNc1ncc2c(n1)c(N(C)c1ccccc1)nc1cc(C(=O)O)ccc12 ?
> 10 µM
